For each of the binders below, state its pKd.
target: GOPC, Q9HD26; assay: holdup assay; design: key: below the threshold = too weak to quantify, mostly under pKd 3.1 to 4; details: plain residues with an end cap or a label only (N-terminal biotin on a linker: ado-ado)
Just the number, please, no unit attached.

Name the recorded pKd for FHSIKQSTAV [CRHR1, P34998] .
4

Name the recorded pKd for THREVKFTSL [CD46, P15529] .
4.05
